Experiment: Parallel Artificial Membrane Permeation Assay (PAMPA)
Type: in vitro ADME
Details: pH 7.4, 500 μM donor, 16 hours, room temperature
Method: The test compounds are dissolved at 10 mM in DMSO and diluted to 500 μM with PBS pH 7.4 or pH 4.0, respectively resulting in ‘donor solutions’. For use as an artificial membrane, a 1% solution of lecithin (w/v) in dodecane is prepared and sonicated. Then, 5 μl of the lecithin/dodecane mixture are carefully pipetted into each donor plate well. […] Then, the wells of the acceptor plate are analyzed with LC/MS.
READOUT: [% flux] at pH 7.4 (%)
Unit % implied. Number only.

Please review the entries below; each comes with its answer.
Look at this molecule and give its reported [% flux] at pH 7.4. Cc1cccc(NC(=O)Cc2ccc(O)c(O)c2O)c1
0

Next record, please: O=C(Cc1cc(O)c(O)c(O)c1)Nc1cccc(C(F)(F)F)c1
0

Thanks! And O=C(Cc1ccc(O)c(O)c1O)Nc1cc(Cl)cc(Cl)c1 ?
0

Continuing:
Form field: reported [% flux] at pH 7.4 of COC(=O)c1ccccc1NC(=O)Cc1ccc(O)c(O)c1O
17

Check O=C(Cc1cc(O)c(O)c(O)c1)NCc1ccc(C(=O)O)cc1 too.
1

Now try Cc1cccc(NC(=O)CCc2ccc(O)c(O)c2O)c1 .
12

Another molecule to check: O=C(/C=C/c1ccc(O)c(O)c1O)Nc1ccc(C(=O)O)cc1
16

----------
tested on: human E-selectin-IgG chimera; experiment: Flow chamber assay, cell adhesion and rolling under flow conditions, E-selectin; assay type: cell-based; conditions: 125 μM compound, flow shear 1 dyne/cm^2
READOUT: E-Selectin [% Inhib.] of cell attachment
Reply with the number, then its unit.

Answered examples (5):
Name the recorded E-Selectin [% Inhib.] of cell attachment for Cc1cccc(NC(=O)CCc2ccc(O)c(O)c2O)c1 [Compound 121] .
18%

Next: O=C(O)Cc1ccc(-c2ccccc2NC(=O)CCc2cc(O)c(O)c(O)c2)s1 [Compound 102]
35%

Can you handle O=C(O)Cc1ccc(-c2ccccc2NC(=O)c2cccc(-c3ccc(O)c(O)c3O)c2)s1 [Compound 48] next?
61%

Try this compound next: O=C(CCc1cc(O)c(O)c(O)c1)NCc1ccc(C(=O)O)cc1 [Compound 120]
21%

Cc1cccc(NC(=O)Cc2ccc(O)c(O)c2O)c1 [Compound 122] ?
27%

Continuing:
Field request: E-Selectin [% Inhib.] of cell attachment | item: O=C(Cc1cc(O)c(O)c(O)c1)NCc1ccc(C(=O)O)cc1 [Compound 118]
16%

What about this compound? O=C(Cc1cc(O)c(O)c(O)c1)Nc1cccc(C(F)(F)F)c1 [Compound 123]
51%

Can you check O=C(O)Cc1ccc(-c2ccccc2NC(=O)Cc2ccc(O)c(O)c2O)s1 [Compound 41] next?
26%

Repeat for the following compound: O=C(Cc1ccc(O)c(O)c1O)Nc1cc(Cl)cc(Cl)c1 [Compound 124]
28%

Proceed to O=C(/C=C/c1ccc(O)c(O)c1O)Nc1cccc(C(=O)O)c1 [Compound 99]
28%

----------
biological target: human L-Selectin-IgG-chimera (Homo sapiens, UniProt P14151); construct: fused on or other part: human IgG Fc part, a tag and dimerising handle that is captured by the goat anti-human Fc antibody on the plate; assay: Sialyl Lewis x Tyrosine Sulfate Assay (sLex TSA), L-selectin
Sequence (P14151 39-318 limits assumed, change not shown): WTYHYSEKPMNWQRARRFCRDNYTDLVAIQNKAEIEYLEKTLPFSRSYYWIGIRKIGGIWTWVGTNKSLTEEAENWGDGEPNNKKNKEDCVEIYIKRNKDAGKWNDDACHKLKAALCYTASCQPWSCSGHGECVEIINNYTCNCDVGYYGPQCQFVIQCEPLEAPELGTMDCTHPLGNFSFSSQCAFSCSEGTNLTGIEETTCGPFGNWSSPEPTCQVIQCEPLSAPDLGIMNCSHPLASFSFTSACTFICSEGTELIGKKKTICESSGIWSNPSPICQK
pIC50: −log10 of the molar value.
Binary classification by pIC50, with 5 as an inclusive lower bound for TRUE; all other cases are FALSE.

Is reported pIC50 greater than or equal to 5 here: Cc1ccc(C(=O)O)cc1NC(=O)CCc1ccc(O)c(O)c1O [Compound 116]
FALSE

Param item: O=C(/C=C/c1ccc(O)c(O)c1O)Nc1cccc(C(=O)O)c1 [Compound 99]
FALSE

Try O=C(Cc1cc(O)c(O)c(O)c1)Nc1cccc(C(=O)O)c1 [Compound 96] next.
TRUE

Now this one: Cc1ccc(C(=O)O)cc1NC(=O)CCc1cc(O)c(O)c(O)c1 [Compound 108]
TRUE

And O=C(Cc1ccc(O)c(O)c1O)Nc1cccc(C(=O)O)c1 [Compound 111] ?
TRUE

Same lookup for O=C(CCc1cc(O)c(O)c(O)c1)NCc1ccc(C(=O)O)cc1 [Compound 120] , please.
FALSE

Next:
Please indicate if the recorded pIC50 for O=C(O)Cc1ccc(-c2ccccc2NC(=O)Cc2ccc(O)c(O)c2O)s1 [Compound 41] meets or exceeds 5.
FALSE

Can you handle O=C(/C=C/c1ccc(O)c(O)c1O)Nc1ccc(C(=O)O)cc1 [Compound 97] next?
TRUE
